- target.of.assay: C-X-C chemokine receptor type 2 (Homo sapiens)
- Sequence (P25025 whole entry): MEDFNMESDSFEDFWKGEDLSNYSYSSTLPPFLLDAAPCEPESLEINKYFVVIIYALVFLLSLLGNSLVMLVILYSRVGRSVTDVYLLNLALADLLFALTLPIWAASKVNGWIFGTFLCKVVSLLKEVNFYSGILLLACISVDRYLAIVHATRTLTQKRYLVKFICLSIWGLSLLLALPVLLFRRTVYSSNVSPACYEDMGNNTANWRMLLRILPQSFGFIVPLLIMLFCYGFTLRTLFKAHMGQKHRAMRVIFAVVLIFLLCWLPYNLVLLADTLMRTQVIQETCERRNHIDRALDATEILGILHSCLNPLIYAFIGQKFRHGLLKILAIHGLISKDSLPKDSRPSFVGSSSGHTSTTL
- assay.info: Concentration required to inhibit [125I]IL-8 binding towards C-X-C chemokine receptor type 2 of human expressed in CHO cells
- Assay type: cell-based
measure.name: IC50 (nM)

Consider the following illustrative entries.
CN(C)S(=O)(=O)c1c(Cl)ccc(NC(=O)Nc2ccccc2Br)c1O
12
O=C(Nc1ccccc1Br)Nc1ccc(Cl)c(Cl)c1O
63
NS(=O)(=O)c1c(Cl)ccc(NC(=O)Nc2ccccc2Br)c1O
7

1: O=C(Nc1ccc(Cl)cc1O)Nc1ccccc1Br
2: NC(=O)c1c(Cl)ccc(NC(=O)Nc2ccccc2Br)c1O
3: Cl.NCc1c(Cl)ccc(NC(=O)Nc2ccccc2Br)c1O
QUERY: Rank by IC50 (largest to smallest). Thanks in advance for listing the labels in the requested order.
RESULT: 1, 3, 2
(1: 906 nM, 3: 114 nM, 2: 10 nM)

---

- target.of.assay: C-X-C chemokine receptor type 1 (Homo sapiens, UniProt P25024)
- Sequence (P25024 whole entry): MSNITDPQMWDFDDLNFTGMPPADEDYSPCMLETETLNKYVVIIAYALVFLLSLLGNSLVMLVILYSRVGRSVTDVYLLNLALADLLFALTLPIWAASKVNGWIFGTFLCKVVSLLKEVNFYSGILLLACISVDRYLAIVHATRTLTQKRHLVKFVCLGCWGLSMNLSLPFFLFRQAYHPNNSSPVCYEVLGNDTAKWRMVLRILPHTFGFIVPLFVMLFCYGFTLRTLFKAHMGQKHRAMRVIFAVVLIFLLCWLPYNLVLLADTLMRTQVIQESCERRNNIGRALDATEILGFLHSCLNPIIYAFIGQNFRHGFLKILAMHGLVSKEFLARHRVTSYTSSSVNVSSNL
- assay.info: Concentration required to inhibit [125I]-IL-8 binding towards C-X-C chemokine receptor type 1 of human expressed in CHO cells
measure.name: IC50 (µM)

NC(=O)c1c(Cl)ccc(NC(=O)Nc2ccccc2Br)c1O
6.04

I: Cl.NCc1c(Cl)ccc(NC(=O)Nc2ccccc2Br)c1O
II: CN(C)S(=O)(=O)c1c(Cl)ccc(NC(=O)Nc2ccccc2Br)c1O
III: O=C(Nc1ccccc1Br)Nc1ccc(Cl)c(Cl)c1O
IV: NS(=O)(=O)c1c(Cl)ccc(NC(=O)Nc2ccccc2Br)c1O
QUERY: Sort low-to-high on IC50, please. Returns: the labels arranged in the requested order.
RESULT: IV, II, III, I

---

- assay.info: pKa value was determined
- Assay type: physicochemical
measure.name: pKa

Cl.NCc1c(Cl)ccc(NC(=O)Nc2ccccc2Br)c1O
6.85
O=C(Nc1ccc(Cl)cc1O)Nc1ccccc1Br
8.24
O=C(Nc1ccccc1Br)Nc1ccc(Cl)c(Cl)c1O
7.24
NC(=O)c1c(Cl)ccc(NC(=O)Nc2ccccc2Br)c1O
7.11
NS(=O)(=O)c1c(Cl)ccc(NC(=O)Nc2ccccc2Br)c1O
6.12
CN(C)S(=O)(=O)c1c(Cl)ccc(NC(=O)Nc2ccccc2Br)c1O
6.19

---

- assay.info: Oral bioavailability in rat
- Format: ADME, organism-based
- condition.details: in vivo
measure.name: bioavailability (%)

CN(C)S(=O)(=O)c1c(Cl)ccc(NC(=O)Nc2ccccc2Br)c1O
100
O=C(Nc1ccc(Cl)cc1O)Nc1ccccc1Br
6.6
NC(=O)c1c(Cl)ccc(NC(=O)Nc2ccccc2Br)c1O
3.6
Cl.NCc1c(Cl)ccc(NC(=O)Nc2ccccc2Br)c1O
67

a: NS(=O)(=O)c1c(Cl)ccc(NC(=O)Nc2ccccc2Br)c1O
b: O=C(Nc1ccccc1Br)Nc1ccc(Cl)c(Cl)c1O
QUERY: Smaller bioavailability value, a vs b ? Your answer should be the label of the entry you select.
RESULT: b
(b: 13%, a: 86%)
